- Measured on: T1, cynomolgus monkey PVRIG on FlpinCHO-cyno PVRIG cells (cynomolgus monkey, UniProt A0A2K5WVV8 41-322)
- T1 construct: whole, on cells
- T1 sequence: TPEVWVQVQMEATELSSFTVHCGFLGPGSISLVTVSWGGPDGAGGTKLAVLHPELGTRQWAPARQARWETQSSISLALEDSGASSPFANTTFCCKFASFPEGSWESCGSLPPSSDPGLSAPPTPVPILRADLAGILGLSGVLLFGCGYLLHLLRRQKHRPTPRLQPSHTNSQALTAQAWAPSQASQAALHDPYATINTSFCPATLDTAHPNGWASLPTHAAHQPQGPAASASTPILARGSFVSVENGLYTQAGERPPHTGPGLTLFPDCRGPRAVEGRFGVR
- Test description: FACS, FlpinCHO-cyno PVRIG cells; AUC of MFI curve relative to SRF813-hIgG1
Quick rule: % AUC to SRF813-hIgG1 of at least 60% means true (1), below that means false (0).

- PVRIG-A30 (Fc fusion, Alpaca VHH joined to human IgG1 Fc (VHH-hinge-CH2-CH3); not shown: human IgG1 hinge-CH2-CH3) QVQLVESGGGLVQPGGSLRLSCAASGRTDSMNVMGWFRRAPGKEREFVARIKWNGDTTYTAYADFLKGRFTLYGAVARNRVYLQMNSLQPEDTAVYYCAAGEVSGSSYSPDYGMHYWGKGTLVTVSS: false (0)
- PVRIG-A35 (Fc fusion, Alpaca VHH joined to human IgG1 Fc (VHH-hinge-CH2-CH3); not shown: human IgG1 hinge-CH2-CH3) EVQVVESGGGLVQSGGSLRLSCAASGRTRSMYVMGWFRQAPGKEREFVGRIKWSGDTTYTSYADFVKGRFTLYGNQARNTVYLQMNSLKPEDTAVYYCNGRSRFNVINAWGTGTLVTVAS: false (0)
- PVRIG-A50 (Fc fusion, Alpaca VHH joined to human IgG1 Fc (VHH-hinge-CH2-CH3); not shown: human IgG1 hinge-CH2-CH3) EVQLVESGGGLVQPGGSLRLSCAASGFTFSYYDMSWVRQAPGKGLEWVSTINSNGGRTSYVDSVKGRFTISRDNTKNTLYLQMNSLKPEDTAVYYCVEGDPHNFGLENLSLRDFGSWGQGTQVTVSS: true (1)
- PVRIG-A75 (Fc fusion, Alpaca VHH joined to human IgG1 Fc (VHH-hinge-CH2-CH3); not shown: human IgG1 hinge-CH2-CH3) QLQLVESGGGLVQSGGSLRLSCAASGRTRSMYVMGWFRQAPGKEREFVGRIKWSGDTTYTSYADFVKGRFTLYGNQARNTVYLQMNSLKPEDTAVYSCAASKFPVSGVPEHYDYWGQGTQVTVSS: true (1)
- PVRIG-A104 (Fc fusion, Alpaca VHH joined to human IgG1 Fc (VHH-hinge-CH2-CH3); not shown: human IgG1 hinge-CH2-CH3) EVQVVESGGGLVQAGGSLRLSCAASGRTRSMYVMGWFRQAPGKEREFVGRIKWSGDTTYTSYADFVKGRFTLYGNQARNTVYLQMNSLKPEDTAVYYCYRRSWTNTKLYWGKGIQVTVSS: false (0)
- PVRIG-A105 (Fc fusion, Alpaca VHH joined to human IgG1 Fc (VHH-hinge-CH2-CH3); not shown: human IgG1 hinge-CH2-CH3) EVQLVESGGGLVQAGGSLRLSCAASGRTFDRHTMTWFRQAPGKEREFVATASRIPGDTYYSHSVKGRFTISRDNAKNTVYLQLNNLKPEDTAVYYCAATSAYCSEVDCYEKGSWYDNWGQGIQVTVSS: true (1)
- PVRIG-A60 (Fc fusion, Alpaca VHH joined to human IgG1 Fc (VHH-hinge-CH2-CH3); not shown: human IgG1 hinge-CH2-CH3) QVQLVESGGGLVQSGGSLRLSCAASGRTRSMYVMGWFRQAPGKEREFVGRIKWSGDTTYTSYADFVKGRFTLYGNQARNTVYLQMNSLKPEDAAVYYCNLRRLDGVNYWGKGTLVTVSS: true (1)
- PVRIG-A117 (Fc fusion, Alpaca VHH joined to human IgG1 Fc (VHH-hinge-CH2-CH3); not shown: human IgG1 hinge-CH2-CH3) EVQVVESGGGLVQAGGSLRLSCTASEHIYDLYIMGWYRQAPGKDRELVATITYTGSIYIADSVKDRFTISRGNAKNTVSLQMSGLKPEDTAVYYCNADPSGLGRKLYWGQGTQVTVSS: true (1)
- PVRIG-A11 (Fc fusion, Alpaca VHH joined to human IgG1 Fc (VHH-hinge-CH2-CH3); not shown: human IgG1 hinge-CH2-CH3) QLQLVESGGGLVQPGGSLRLSCAASGFTDDYYAIGWFRQAPGKEREGVSCISGSGGSTNYEDSVKGRFAISRDNAKNMVYLQMNDLKPEDTAVYYCAADPFWSAPCTGHNDRYFDVWGQGTLVTVSS: false (0)
- PVRIG-A113 (Fc fusion, Alpaca VHH joined to human IgG1 Fc (VHH-hinge-CH2-CH3); not shown: human IgG1 hinge-CH2-CH3) QLQLVESGGGLVQSGGSLRLSCAASGRTRSMYVMGWFRQAPGKEREFVGRIKWSGDTTYTSYADFVKGRFTLYGNQARNTVYLQMNSLKPEDTAVYYCAALPSDYDYRAASYGVDYWGKGTLVTVSS: false (0)
- PVRIG-A15 (Fc fusion, Alpaca VHH joined to human IgG1 Fc (VHH-hinge-CH2-CH3); not shown: human IgG1 hinge-CH2-CH3) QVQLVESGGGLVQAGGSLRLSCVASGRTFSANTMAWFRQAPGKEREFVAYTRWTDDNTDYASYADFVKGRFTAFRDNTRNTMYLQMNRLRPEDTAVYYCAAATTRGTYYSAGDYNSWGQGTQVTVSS: false (0)
- PVRIG-A118 (Fc fusion, Alpaca VHH joined to human IgG1 Fc (VHH-hinge-CH2-CH3); not shown: human IgG1 hinge-CH2-CH3) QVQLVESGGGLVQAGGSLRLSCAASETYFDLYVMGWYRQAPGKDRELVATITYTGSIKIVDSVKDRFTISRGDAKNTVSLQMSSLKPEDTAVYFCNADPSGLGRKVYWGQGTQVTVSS: true (1)
- PVRIG-A43 (Fc fusion, Alpaca VHH joined to human IgG1 Fc (VHH-hinge-CH2-CH3); not shown: human IgG1 hinge-CH2-CH3) QVQLVESGGGLVQSGGSLRLSCAASGRTRSMYVMGWFRQAPGKEREFVGRIKWSGDTTYTSYADFVKGRFTLYGNQARNTVYLQMNSLKVEDTAVYYCAGRVVPLPSRQRDRYDYWGQGTQVTVSS: false (0)
